- target.or.system: Mannose-6-phosphate isomerase (Homo sapiens)
- protocol.summary: inhibitors of human PMI, primary screen, biochemical, fluorescence intensity, coupled assay (AID 1209);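 also: plate controls were DMSO vehicle for no effect and wells lacking substrate for full effect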
- setup.conditions: purified PMI enzyme, at 20 µM, hits give high values
Out of some 190,000 compounds screened, about 810 (0.43%) were called active. The full list was thinned out, with actives kept by preference.
Listed here are compounds together with their documented inhibition.
Number in %, nothing else.

Solved cases (4 shown):
{"compound": "CCCCNC(=O)CC1S/C(=N/N=C/c2ccc(OC)cc2)NC1=O (stereo unspecified)", "units.symbol": "%", "inhibition": -7.8}
{"compound": "Cc1ccc(NC(=O)CSc2nnc(C)c(=O)n2N)cc1", "units.symbol": "%", "inhibition": -5.9}
{"compound": "N#C/C(=C/c1ccc(CNS(=O)(=O)c2ccccc2)o1)C(=O)NCc1ccccc1", "units.symbol": "%", "inhibition": 7.8}
{"compound": "O=C(c1ccc(F)cc1)N1CCN2C(=O)c3ccccc3C12c1ccc(Cl)cc1 (stereo unspecified)", "units.symbol": "%", "inhibition": 8.3}

Query: Would you mind telling me what inhibition value was observed for Cc1nc([N+](=O)[O-])nn1C12CC3CC(CC(Cl)(C3)C1)C2 ?
Response: 4.8

Query: What does the data say about its inhibition? Entry: CCCSc1nnc2[nH]c(=O)cc(N)n12
Response: -1.4

Query: GET /values?readout=inhibition&item= Cc1ccc(NC(=O)CSc2nnc(C)c(=O)n2N)c(C)c1
Response: 76.6

###

- target.or.system: Mannose-6-phosphate isomerase (Homo sapiens) (UniProt P34949)
- Sequence (P34949 whole entry, looked up): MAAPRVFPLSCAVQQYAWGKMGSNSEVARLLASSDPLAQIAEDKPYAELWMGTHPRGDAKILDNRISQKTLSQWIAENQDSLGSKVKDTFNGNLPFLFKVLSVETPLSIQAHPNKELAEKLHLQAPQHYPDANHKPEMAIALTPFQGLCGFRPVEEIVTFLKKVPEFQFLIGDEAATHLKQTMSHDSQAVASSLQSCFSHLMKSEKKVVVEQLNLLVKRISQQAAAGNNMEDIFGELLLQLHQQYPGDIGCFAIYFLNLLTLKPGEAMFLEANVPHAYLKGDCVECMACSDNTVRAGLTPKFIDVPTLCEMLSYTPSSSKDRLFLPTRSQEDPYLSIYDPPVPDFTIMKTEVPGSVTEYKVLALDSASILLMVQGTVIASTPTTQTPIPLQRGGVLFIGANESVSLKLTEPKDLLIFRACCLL
- protocol.summary: inhibitors of human PMI, primary screen, biochemical, fluorescence intensity, coupled assay (AID 1209)
- setup.conditions: purified PMI enzyme, at 20 µM, hits give high values
About 810 (0.43%) of roughly 190,000 compounds were called active. The entries come from a sample that favours actives as a whole.
experimental.readout: inhibition (%)
The reply should contain only the number, in %.

{"structure.smiles": "Cc1cc(-c2nsc(=O)o2)c(S(C)(=O)=O)s1", "inhibition, %": 53.2}
{"structure.smiles": "COc1ccc(Cl)cc1N/C(N)=N/c1nc(CSc2ccc(C)cc2)cc(=O)[nH]1", "inhibition, %": 3.7}
{"structure.smiles": "Cc1cc(C(=O)O)c(S(C)(=O)=O)s1", "inhibition, %": -0.9}
{"structure.smiles": "COc1ccc(CCN2CC(C#N)=C3c4cc(OC)c(OC)cc4CCN3C2)cc1OC", "inhibition, %": 18.8}

Query: So what does the record say about inhibition for O=C(CSc1nnc(-c2c[nH]c3ccccc23)o1)c1ccc(-c2ccccc2)cc1 ?
Response: 9

Query: Requested read-out: inhibition. Entry: CCOc1ccc(OCCn2c(=S)[nH]c3c(N)ncnc32)cc1
Response: 11

###

inhibition: recorded values
- target.or.system: Mannose-6-phosphate isomerase (Homo sapiens) (UniProt P34949)
- protocol.summary: inhibitors of human PMI, primary screen, biochemical, fluorescence intensity, coupled assay (AID 1209)
- setup.conditions: purified PMI enzyme, at 20 µM, hits give high values
The campaign covered roughly 190,000 compounds. About 810 (0.43%) were called active. What follows is part of a selection rich in actives, with near analogues and random picks from the rest.
A number alone suffices; assume %.

These recorded examples may help you get a feel for the data.
{"molecule": "COC(=O)c1ccc2c(=O)n(-c3ccccc3F)c(=S)[nH]c2c1", "target.or.system": "Mannose-6-phosphate isomerase (Homo sapiens) (UniProt P34949)", "inhibition / %": -15.3}
{"molecule": "CCOC(=O)c1ccccc1N/C=C1\\CCCCC1=O", "target.or.system": "Mannose-6-phosphate isomerase (Homo sapiens) (UniProt P34949)", "inhibition / %": -4.9}
{"molecule": "CCC(C)(C)NC(=O)C(c1cccn1C)N(C(=O)Cn1nnc2ccccc21)c1ccccc1OC (stereo unspecified)", "target.or.system": "Mannose-6-phosphate isomerase (Homo sapiens) (UniProt P34949)", "inhibition / %": -6.8}
{"molecule": "COc1ccc(/C(N)=N/OC(=O)CSc2ccc(C)cc2)cc1OC", "target.or.system": "Mannose-6-phosphate isomerase (Homo sapiens) (UniProt P34949)", "inhibition / %": 14.6}

Query: Can you share its inhibition? I mean this molecule: COC(=O)c1ccccc1N/C=C1\CCc2c(c(C)nn2-c2ccccn2)C1=O
Response: 85.2

Query: Field request: inhibition | item: Cc1ccc(N2C(=O)C3Sc4[nH]c(=O)sc4C(c4ccccc4)C3C2=O)cc1 (stereo unspecified)
Response: 11.4

Query: // inhibition lookup, key: COC(=O)c1ccc(C(=O)OC)c(-n2c(=O)c3ccccc3c3ccccc3c2=O)c1
Response: 80.2

Query: Param item = O=C(CN1C(=O)c2ccccc2S1(=O)=O)Nc1ccc(S(=O)(=O)N2CCCCCC2)cc1 ; retrieve measured inhibition.
Response: 18.7

Query: Endpoint output: inhibition of Clc1ccc(N/N=C/c2ccncc2)cc1Cl . Value?
Response: 5.3

Query: // inhibition lookup, key: O=C(COC(=O)c1ccccc1Br)NCCC1=CCCCC1
Response: 5.8

Query: // returns reported inhibition for input COC(=O)c1ccc2c(=O)n(-c3ccccc3)c(=S)[nH]c2c1
Response: 0.9

###

- target.or.system: Mannose-6-phosphate isomerase (Homo sapiens)
- protocol.summary: inhibitors of human PMI, primary screen, biochemical, fluorescence intensity, coupled assay (AID 1209);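 also: plate controls were DMSO vehicle for no effect and wells lacking substrate for full effect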
- setup.conditions: purified PMI enzyme, at 20 µM, hits give high values
The whole screen tested about 190,000 compounds, of which about 810 (0.43%) were called active. Only a selection was taken, and actives are over-represented in it overall.
experimental.readout: inhibition (%)
Field format: number, assumed %, no unit text.

Query: Would you kindly share the measured inhibition for COc1ccccc1NC(=O)c1ccc(NS(=O)(=O)c2ccc(F)c(F)c2F)cc1 ?
Response: -19.3

Query: Look up inhibition: CC1OC(OCC2OC(Oc3c(-c4ccc(O)cc4)oc4cc(O)cc(O)c4c3=O)C(O)C(O)C2O)C(O)C(O)C1O (centres undefined)
Response: 4.8

Query: Sample O=c1c(O)c(-c2ccc(O)cc2O)oc2cc(O)cc(O)c12 — what was its inhibition?
Response: -15.2

###

- target.or.system: Mannose-6-phosphate isomerase (Homo sapiens) (UniProt P34949)
- protocol.summary: inhibitors of human PMI, primary screen, biochemical, fluorescence intensity, coupled assay (AID 1209);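 also: plate controls were DMSO vehicle for no effect and wells lacking substrate for full effect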
- setup.conditions: purified PMI enzyme, at 20 µM
About 810 (0.43%) of roughly 190,000 compounds were called active. Rule as the data show it: active = inhibition above about 50%; inactive = the rest. The sample holds actives, similar compounds and a random draw of the others, so the mix is not that of the screen.
The reply should be one of these categories: true for active, false for inactive

Some entries whose results are on file:
{"compound": "CC(C)CC(c1nnnn1Cc1ccc2c(c1)OCO2)N1CCC(C(N)=O)CC1 (stereo unspecified)", "target.or.system": "Mannose-6-phosphate isomerase (Homo sapiens) (UniProt P34949)", "discrete.label": "false"}
{"compound": "CCN(C(=O)COC(=O)c1cc(-c2ccccc2)nc2c1c(C)nn2-c1ccccc1)C1CCS(=O)(=O)C1 (stereo unspecified)", "target.or.system": "Mannose-6-phosphate isomerase (Homo sapiens) (UniProt P34949)", "discrete.label": "false"}
{"compound": "CC1CCC(NC(=O)Cn2ncc3ccccc32)CC1 (stereo unspecified)", "target.or.system": "Mannose-6-phosphate isomerase (Homo sapiens) (UniProt P34949)", "discrete.label": "false"}

Query: Entry Cc1ccc2nc(C)c(C(=O)N/N=C/c3ccc(C(=O)O)cc3)cc2c1 : call = ?
Response: false

Query: Each compound tested received a call. Report the one for CC(=O)C1=C(c2ccc(Br)cc2)C(=O)c2ccccc2C1=O .
Response: true

Query: For CN(C(=O)c1ccccn1)C1(C(=O)NC2CCCCC2)CCCCC1 , which call appears in the assay record?
Response: false

###

- target.or.system: Mannose-6-phosphate isomerase (Homo sapiens)
- protocol.summary: inhibitors of human PMI, primary screen, biochemical, fluorescence intensity, coupled assay (AID 1209);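 also: plate controls were DMSO vehicle for no effect and wells lacking substrate for full effect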
- setup.conditions: purified PMI enzyme, at 20 µM, hits give high values
Hit rate of the full screen: of about 190,000 compounds, about 810 (0.43%) were called active. This is one part of a sample in which actives are shown more often than they occur.
Known inhibition of a selection of molecules
Return type: number; implicit unit %.

{"molecule": "Cc1ccc(C2CC(c3ccccc3)=NN2C(=S)Nc2ccccc2)o1 (stereo unspecified)", "numeric.value": 53}
{"molecule": "COC(=O)C1=C(NC(=O)c2ccc(C)c(C)c2)CCS1", "numeric.value": 3.8}
{"molecule": "CSc1ccccc1NC(=O)c1cc(-c2cccnc2)nc2ccc(Br)cc12", "numeric.value": -3}
{"molecule": "O=C1CCC([N+](=O)[O-])C(c2cccc(Cl)c2Cl)N1 (stereo unspecified)", "numeric.value": -4.8}
{"molecule": "Cc1nn(C)c(C)c1C1C(C#N)=C(N)OC2=C1C(=O)CC(C)(C)C2 (stereo unspecified)", "numeric.value": -1.4}

Now turn to the next molecule.
Query: Fill in: inhibition of CCN(CC)CCNC(=O)C1CCC(=O)N1CCc1ccccc1 (stereo unspecified) is ___
Response: 4.7
